Across several studies, molecules have been characterized by their pIC50 on Vasopressin V1a receptor (Homo sapiens, UniProt P37288); a selection follows.
Friendly reminder that pIC50 comes from taking -log10 of the concentration in mol/L.

Exercise: Which pIC50 value is on record for COc1ccc(S(=O)(=O)N2C(=O)C(c3cc(CCO)ccc3OC)(N3C[C@H](O)C[C@H]3C(=O)N(C)C)c3cc(Cl)ccc32)c(OC(F)(F)F)c1 (single isomer, unassigned) ?
Key: 6.39

Exercise: Same question for `NNC(=O)c1ccc2n1Cc1ccccc1N(C(=O)c1ccc(C3CCCCC3)cc1)C2` please.
Key: 6.27

Exercise: Same question for `Cc1cc(Cl)c(COc2cccc3c(-n4cc(F)cn4)cc(C)nc23)c(Cn2cccc(C#N)c2=O)n1` please.
Key: 5.82

Exercise: Same question for `O=C(c1ccc2n1Cc1ccccc1N(C(=O)c1ccc(C3CCCCC3)cc1)C2)N1CCN(c2ncccn2)CC1` please.
Key: 6.20
